- target.system: UniProt Q8I5X7
- protocol.details: IC50 for competition of protein binding to Kinobeads;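 further: native unpurified kinases from lysate captured on beads bearing immobilized kinase inhibitors, with bead-bound kinases quantified by mass spectrometry across compound doses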
- test.context: assay detail: Kinobeads competition in P. falciparum blood-stage lysate
measured.metric: IC50

# return recorded IC50 for entry O=c1[nH]c2ccc(Cl)cc2c(NC2CN3CCC2CC3)c1-c1nc2ccccc2[nH]1 (stereo unspecified)
> 20 µM

* * *

- target.system: UniProt Q8I3M5
- protocol.details: IC50 for competition of protein binding to Kinobeads
- test.context: assay detail: Kinobeads competition in P. falciparum blood-stage lysate
measured.metric: IC50

Complete the entry with IC50 for O=c1[nH]c2ccc(Cl)cc2c(NC2CN3CCC2CC3)c1-c1nc2ccccc2[nH]1 (stereo unspecified)
> 20 µM

src = the supplement of paper PMC13386468
